Test system: Physalis ixocarpa
Test: Phytotoxicity against Physalis ixocarpa assessed as inhibition of seed respiration during germination after 72 hr
Type: functional, organism-based
Settings: read-out: I50
Entries and their pIC50 values follow.
When answering, recall that pIC50 equals minus log10 of the concentration in mol/L, and write that number alone.

Look over these answered cases.
- COc1ccc(C(C)=O)cc1 [P-METHOXY-ACETOPHENONE]: 4.26
- CC(=O)c1ccc2c(c1)CC(C1(C)CO1)O2 (stereo not given) [10,11-EPOXY TREMETONE]: 4.24
- CC(=O)c1ccc(O)cc1 [4-HYDROXYACETOPHENONE]: 4.28

Input: Returns the measured pIC50 for the input compound. Input: CC(=O)c1ccc2c(c1O)C[C@H](C1(C)CO1)O2 (stereo not given in full)
Output: 4.80

Input: Returns the measured pIC50 for the input compound. Input: C=C(C)[C@H]1Cc2c(ccc(C(C)=O)c2O)O1 [4-HYDROXY TREMETONE]
Output: 4.54

* * *

Test system: Lactuca sativa
Assay: Increase of root development during seeding stage in Lactuca sativa (lettuce) at 50 to 300 uM after 120 hr
Assay type: functional, organism-based
Active and inactive are the calls of the source. The rule behind the calls is not given here.
quantity_name: Activity

• CC(=O)c1ccc(Br)cc1 = Active
• C=C(C)[C@H]1Cc2c(ccc(C(C)=O)c2OC(C)=O)O1 = Active
• CC(=O)Oc1ccc(C(C)=O)cc1 [4-(ACETATE)ACETOPHENONE] = Active
• CC(=O)c1ccc(O[C@@H]2O[C@H](CO)[C@@H](O)[C@H](O)[C@H]2O)cc1 = Active

* * *

Entries and their IC50 values follow.
Tested on: Lolium multiflorum
Assay: Phytotoxicity against Lolium multiflorum (Italian ryegrass) assessed as inhibition of root development during seeding stage after 120 hr
Format: functional, organism-based
Conditions: read-out: I50
Write the value in µM as a bare number.

Look over these answered cases.
* C=C(C)[C@H]1Cc2c(ccc(C(C)=O)c2O)O1 [4-HYDROXY TREMETONE] | 22.3
* COc1ccc(C(C)=O)cc1 | 18.9
* CC(=O)c1ccccc1 | 128

Input: Recorded IC50 for C=C(C)[C@H]1Cc2cc(C(C)=O)ccc2O1 with Lolium multiflorum, please?
Output: 36.1

* * *

Entries and their GI50 values follow.
System: Physalis ixocarpa
Test: Phytotoxicity against Physalis ixocarpa assessed as inhibition of seed germination after 48 hr
Type: functional

Look over these answered cases.
* C=C(C)[C@H]1Cc2cc(C(C)=O)ccc2O1 [TREMETONE] | 31.8 µM
* C=C(C)[C@H]1Cc2c(ccc(C(C)=O)c2OC(C)=O)O1 [4-ACETYL TREMETONE] | 55.2 µM

Input: Returns the measured GI50 for the input compound. Input: CC(=O)c1ccc2c(c1)C[C@H](C(C)C)O2 [10,11-DIHYDRO TREMETONE]
Output: 24.7 µM

Input: Returns the measured GI50 for the input compound. Input: CC(=O)c1ccc2c(c1O)C[C@H](C1(C)CO1)O2 (stereo not given in full)
Output: 8.7 µM

The measurements presented in this section are drawn from ChEMBL document CHEMBL3046177.
